protocolDescription: Phase solubility studies of Compound I with cyclodextrins (excess compound, 7 days, 37° C., HPLC)
Format: physicochemical
measurementParameters: γCD solution, 37 °C, aqueous with cosolvent or surfactant or cyclodextrin, thermodynamic from solid, γCD, maximum concentration used 200 mM; read-out: Maximum solubility
Description: At the time of a complex formation, compound I, practically insoluble in water (<0.6 μg/ml, MW: 485), solubilizes dramatically. The increase in the solubility of compound I is thus proof of a complex formation between Compound I and the CD. […] After 7 days of stirring in thermostatically controlled baths at 37° C., these solutions are filtered and the solubilized compound I quantity is dosed by HPLC. […]
quantityName: solubility at 7 days (mg/mL)
Answer with a number only, understood to be in mg/mL.

Request the reported solubility at 7 days associated with O=C1NC(=O)C(c2ccc(-c3ccccc3)cc2)(N2CCN(c3ccc([N+](=O)[O-])cc3)CC2)C(=O)N1 [Compound I]
0.0291

---

protocolDescription: Phase solubility studies of Compound I with cyclodextrins (excess compound, 7 days, 37° C., HPLC)
Format: physicochemical
measurementParameters: cyclodextrin solution, 37 °C, aqueous with cosolvent or surfactant or cyclodextrin, thermodynamic from solid, in the presence of HPβCD, CD 16 mM; 37° C., 7 days; read-out: Concentration of Compound I (solubility)
quantityName: solubility at 7 days (µg/mL)
// return numeric value only (unit: µg/mL, not printed)

Request the reported solubility at 7 days associated with O=C1NC(=O)C(c2ccc(-c3ccccc3)cc2)(N2CCN(c3ccc([N+](=O)[O-])cc3)CC2)C(=O)N1 [Compound I]
1.5

---

protocolDescription: Phase solubility studies of Compound I with cyclodextrins (excess compound, 7 days, 37° C., HPLC)
Assay type: physicochemical
measurementParameters: cyclodextrin solution, 37 °C, aqueous with cosolvent or surfactant or cyclodextrin, thermodynamic from solid, in the presence of HPβCD, CD 10 mM; 37° C., 7 days; read-out: Concentration of Compound I (solubility)
quantityName: solubility at 7 days (µg/mL)
Give the value, in units of µg/mL, as a plain number.

I would be grateful if you could share the reported solubility at 7 days for O=C1NC(=O)C(c2ccc(-c3ccccc3)cc2)(N2CCN(c3ccc([N+](=O)[O-])cc3)CC2)C(=O)N1 .
3.4

---

protocolDescription: Differential solubility in acetonitrile of free and complexed compound I
Format: physicochemical
measurementParameters: organic solvent or mixture; free compound
quantityName: solubility

So what's the measured solubility for this one? O=C1NC(=O)C(c2ccc(-c3ccccc3)cc2)(N2CCN(c3ccc([N+](=O)[O-])cc3)CC2)C(=O)N1
~700 µg/mL

---

Recorded measurements of solubility, one per entry
protocolDescription: Solubility of various trioxopyrimidines in the presence of HPβCD
Format: physicochemical
measurementParameters: HPβCD solution, 37 °C, aqueous with cosolvent or surfactant or cyclodextrin, thermodynamic from solid, HPβCD 200 mM; read-out: Concentration (solubility)
Give the number; µg/mL is assumed, so skip it.

Record excerpt, results attached:
{"chemicalStructure": "O=C1NC(=O)C(c2ccc(Oc3ccc(Br)cc3)cc2)(N2CCN(c3ncccn3)CC2)C(=O)N1", "solubility (µg/mL)": 9900}
{"chemicalStructure": "O=C1NC(=O)C(c2ccc(Oc3ccc(Cl)c(Cl)c3)cc2)(N2CCN(c3ncccn3)CC2)C(=O)N1", "solubility (µg/mL)": 7900}
{"chemicalStructure": "O=C1NC(=O)C(c2ccc(Oc3ccc(Cl)cc3)cc2)(N2CCN(c3ncccn3)CC2)C(=O)N1", "solubility (µg/mL)": 9500}

Here is another compound to look at.
solubility lookup needed for O=C1NC(=O)C(c2ccc(Oc3ccccc3)cc2)(N2CCN(c3ncccn3)CC2)C(=O)N1 , thanks.
9300

Reference source for all entries: patent US8044035B2
